# System: OVCAR-5 ovarian
# test.description: NCI tumour cell line growth inhibition, 48 h
Where a SMILES comes first, the peptide text is derived from it. [ ]: non-standard residue; d: D form. The star is where a group is joined. ξ: configuration not given here. NMeF = CN[C@@H](Cc1ccccc1)C(=O)O; NMeV = CN[C@H](C(=O)O)C(C)C; ξNMeV = CNC(C(=O)O)C(C)C; Boc = CC(C)(C)OC(=O)*; OBn = c1ccc(CO*)cc1
Listed here are molecules together with their documented TGI.

molecule=COc1ccc(/C=C/c2ccnc3ccccc23)cc1OC test_system="OVCAR-5 ovarian" recorded_metric=TGI result="27.6 µM"

Bench note: what TGI did CN(C)c1ccc2[nH]c3c(C(N)=O)cc(=O)c(=O)c=3oc2c1 show?
17.2 µM

Entry COc1ccc2c(c1)/C(=N/OC(C)=O)c1c-2c(OC)nc2ccccc12 : reported TGI = ?
> 100 µM

# input molecule: Cc1c(-c2ccccn2)ccc2ccccc12 ; wanted: its TGI
> 100 µM

Which TGI value is on record for C=C(C)C(=O)Nc1ccc(-c2c(-c3ccc(Oc4nccc(C)n4)c(F)c3)c3c(N)ncnc3n2C)cc1 ?
20.9 µM

Recorded TGI for COc1cc(/C=C/C(=N\NC(N)=S)c2sc(NNC(C)=O)nc2C)ccc1O , please?
> 100 µM

Look up TGI: CC(C)C(C(=O)N(C)[C@H](C(=O)N1CCC[C@H]1C(=O)N(C)[C@@H](Cc1ccccc1)C(=O)OCc1ccccc1)C(C)C)N(C)C(=O)[C@@H](NC(=O)OC(C)(C)C)C(C)C (some centres undefined) (Boc-V[ξNMeV][NMeV]P[NMeF]-OBn)
> 31.6 µM

Would you kindly share the measured TGI for COc1ccc(C2=Nc3ccccc3N=C(SC)C2)cc1 ?
> 100 µM

What value of TGI has been recorded for this entry: CC(NNC(=O)c1ccncc1)c1cccc(C(F)(F)F)c1 (centres undefined)
> 100 µM
